Kindly state selectivity ratio for each of the entries shown.
experiment-description: Selectivity index, ratio of IC50 for mouse J774 cells to IC50 for Leishmania donovani axenic amastigotes infected in mouse J774 cells
Type: toxicity, cell-based
test-context: read-out: Ratio IC50
One number for each entry.

Solved cases below.
| smiles-structure | selectivity ratio |
| --- | --- |
| CCCCCCCN1C(=N)N(CCCC[C@@H]2CNC(=N)N2CCCCC2CCCCC2)C[C@@H]1CC1CCCCC1 | 6 |
| N=C1NCCN1CCc1ccccc1 | 1 |
| CCCC[C@H]1CNC(=N)N1CCC12CC3CC(CC(C3)C1)C2 | 3 |

Provide the reported selectivity ratio of each entry below, same order.
1. CCCC[C@H]1CN(CCCC[C@H]2CNC(=N)N2)C(=N)N1CCc1ccc(-c2ccccc2)cc1
2. CCCC[C@H]1CNC(=N)N1CCc1ccc(-c2ccccc2)cc1
3. CCCC[C@H]1CN(CCCC[C@H]2CNC(=N)N2CCCCC2CCCCC2)C(=N)N1CCc1ccc(-c2ccccc2)cc1
4. CCCC[C@H]1CN(CCCC[C@H]2CNC(=N)N2CCc2cccc(C(F)(F)F)c2)C(=N)N1
5. N=C1NC[C@H](CCCCN2C[C@@H](Cc3ccc4ccccc4c3)N(CCc3ccc(-c4ccccc4)cc3)C2=N)N1CCc1cccc(C(F)(F)F)c1
6. Cc1cccc(CCN2C(=N)NC[C@@H]2CCCCN2CCNC2=N)c1
7. Cc1ccccc1CCN1C(=N)NC[C@@H]1CCCCN1CCNC1=N
8. CCCC[C@H]1CN(CCCC[C@H]2CNC(=N)N2CCC23CC4CC(CC(C4)C2)C3)C(=N)N1CCc1ccc(-c2ccccc2)cc1

Given back:
1. 43
2. 6
3. 2
4. 3
5. 39
6. 56
7. 14
8. 25

====

Kindly state selectivity ratio for each of the entries shown.
experiment-description: Selectivity index, ratio of IC50 for mouse J774 cells to IC50 for Leishmania donovani axenic amastigotes infected in mouse J774 cells
Format: toxicity, cell-based
test-context: read-out: Ratio IC50
One number for each entry.

| molecule | endpoint-label | value-reported |
| --- | --- | --- |
| N=C1N(CCCC[C@H]2CNC(=N)N2CCC23CC4CC(CC(C4)C2)C3)CCN1CCc1ccc(-c2ccccc2)cc1 | selectivity ratio | 33 |
| CC1CCC(CN2C(=N)NC[C@@H]2CCCCN2CCNC2=N)CC1 (stereo partly drawn) | selectivity ratio | 1 |
| CC1CCCCC1CN1C(=N)NC[C@@H]1CCCCN1CCNC1=N (stereo partly drawn) | selectivity ratio | 3 |
| N=C1NC[C@H](CCCCN2C[C@@H](Cc3ccc4ccccc4c3)N(CCCCC3CCCCC3)C2=N)N1CCCCC1CCCCC1 | selectivity ratio | 56 |
| N=C1NCCN1CCCC[C@H]1CNC(=N)N1CCc1cccc(C(F)(F)F)c1 | selectivity ratio | 9 |

Asked: State the recorded selectivity ratio for this entry: CCCCCCCN1C(=N)N(CCCC[C@H]2CNC(=N)N2CCc2cccc(C(F)(F)F)c2)C[C@H]1Cc1ccc2ccccc2c1
Given back: 14

====

Tested on: Leishmania donovani
experiment-description: Antileishmanial activity against Leishmania donovani axenic amastigotes at 2.5 uM after 72 hrs by Celltiter reagent based assay relative to control
Format: functional
endpoint-label: inhibition at 2.5 µM (%)
Answers are plain numbers, in %.

| smiles-structure | value-reported |
| --- | --- |
| CCCCCCCN1C(=N)N(CCCC[C@H]2CNC(=N)N2CCCCC2CCCCC2)C[C@@H]1CCCC | 68 |
| CCCC[C@H]1CN(CCCC[C@H]2CNC(=N)N2CCCCC2CCCCC2)C(=N)N1CCc1ccc(-c2ccccc2)cc1 | 78 |
| CCCCCCCN1C(=N)N(CCCC[C@H]2CNC(=N)N2CCC23CC4CC(CC(C4)C2)C3)C[C@@H]1CCCC | 96 |

Note: attention shifts to another entry.
Asked: Request body: readout inhibition at 2.5 µM, system Leishmania donovani, query N=C1NC[C@H](CCCCN2C[C@@H](Cc3ccc4ccccc4c3)N(CCCCC3CCCCC3)C2=N)N1CCC12CC3CC(CC(C3)C1)C2 . Return the value.
Given back: 99

====

Kindly state inhibition at 2.5 µM for each of the entries shown.
Tested on: Leishmania donovani
experiment-description: Antileishmanial activity against Leishmania donovani axenic amastigotes at 2.5 uM after 72 hrs by Celltiter reagent based assay relative to control
Type: functional
Answers are plain numbers, in %.

Provide the reported inhibition at 2.5 µM of each entry below, same order.
1. N=C1NC[C@H](CCCCN2C[C@@H](Cc3ccc4ccccc4c3)N(CCCCC3CCCCC3)C2=N)N1CCCCC1CCCCC1
2. N=C1NC[C@H](CCCCN2C[C@@H](Cc3ccc4ccccc4c3)N(CCCCC3CCCCC3)C2=N)N1CCc1cccc(C(F)(F)F)c1
3. N=C1NC[C@H](CCCCN2C[C@@H](Cc3ccc4ccccc4c3)N(CCc3ccc(-c4ccccc4)cc3)C2=N)N1CCc1cccc(C(F)(F)F)c1
4. CCCCCCCN1C(=N)N(CCCC[C@H]2CNC(=N)N2CCC23CC4CC(CC(C4)C2)C3)C[C@H]1Cc1ccc2ccccc2c1
5. CCCCCCCN1C(=N)N(CCCC[C@H]2CNC(=N)N2CCCCC2CCCCC2)C[C@H]1Cc1ccc2ccccc2c1

Given back:
[0, 6, 0, 0, 6]

====

Kindly state inhibition at 2.5 µM for each of the entries shown.
Test system: Leishmania donovani
experiment-description: Antileishmanial activity against Leishmania donovani axenic amastigotes at 2.5 uM after 72 hrs by Celltiter reagent based assay relative to control
Assay type: functional
One number for each entry, in %.

Solved cases below.
| smiles-structure | unit-name | inhibition at 2.5 µM |
| --- | --- | --- |
| N=C1NC[C@H](CCCCN2C[C@H](CC3CCCCC3)N(CCCCC3CCCCC3)C2=N)N1CCc1cccc(C(F)(F)F)c1 | % | 0 |
| N=C1NC[C@H](CCCCN2C[C@H](CC3CCCCC3)N(CCc3ccc(-c4ccccc4)cc3)C2=N)N1CCCCC1CCCCC1 | % | 70 |
| N=C1NC[C@H](CCCCN2C[C@@H](Cc3ccc4ccccc4c3)N(CCc3ccc(-c4ccccc4)cc3)C2=N)N1CCC12CC3CC(CC(C3)C1)C2 | % | 0 |

Provide the reported inhibition at 2.5 µM of each entry below, same order.
1. CCCCCCCN1C(=N)N(CCCC[C@H]2CNC(=N)N2CCc2cccc(C(F)(F)F)c2)C[C@@H]1CCCC
2. CCCCCCCN1C(=N)N(CCCC[C@H]2CNC(=N)N2CCc2cccc(C(F)(F)F)c2)C[C@@H]1CC1CCCCC1
3. N=C1NC[C@H](CCCCN2C[C@H](CC3CCCCC3)N(CCCCC3CCCCC3)C2=N)N1CCC12CC3CC(CC(C3)C1)C2
4. N=C1NC[C@H](CCCCN2C[C@H](CC3CCCCC3)N(CCc3ccc(-c4ccccc4)cc3)C2=N)N1CCC12CC3CC(CC(C3)C1)C2

Given back:
1: 9; 2: 0; 3: 0; 4: 14

====

Tested on: Leishmania donovani
experiment-description: Antileishmanial activity against Leishmania donovani axenic amastigotes at 2.5 uM after 72 hrs by Celltiter reagent based assay relative to control
Type: functional
endpoint-label: inhibition at 2.5 µM (%)
Give bare numbers, in %.

| smiles-structure | value-reported |
| --- | --- |
| CCCCCCCN1C(=N)N(CCCC[C@H]2CNC(=N)N2CCCCC2CCCCC2)C[C@@H]1CC1CCCCC1 | 97 |
| CCCC[C@H]1CN(CCCC[C@H]2CNC(=N)N2CCc2cccc(C(F)(F)F)c2)C(=N)N1CCCCC1CCCCC1 | 0 |
| N=C1NC[C@H](CCCCN2C[C@@H](Cc3ccc4ccccc4c3)N(CCc3ccc(-c4ccccc4)cc3)C2=N)N1CCCCC1CCCCC1 | 15 |

Note: attention shifts to another entry.
Asked: State the recorded inhibition at 2.5 µM for this entry: CCCCCCCN1C(=N)N(CCCC[C@H]2CNC(=N)N2CCC23CC4CC(CC(C4)C2)C3)C[C@@H]1CC1CCCCC1
Given back: 14

====

Kindly state selectivity ratio for each of the entries shown.
experiment-description: Selectivity index, ratio of IC50 for mouse J774 cells to IC50 for Leishmania donovani axenic amastigotes infected in mouse J774 cells
Type: toxicity, cell-based
test-context: read-out: Ratio IC50

Solved cases below.
| compound | value-reported |
| --- | --- |
| CC1CCCC(CCN2C(=N)NC[C@@H]2CCCCN2CCNC2=N)C1 (stereo not given in full) | 10 |
| N=C1NC[C@H](CCCCN2CCN(CCc3ccc(-c4ccccc4)cc3)C2=N)N1 | 10 |
| CCCC[C@H]1CN(CCCC[C@@H]2CNC(=N)N2CCc2cccc(C(F)(F)F)c2)C(=N)N1CCCCC1CCCCC1 | 79 |
| N=C1NC[C@H](CCCCN2C[C@H](CC3CCCCC3)N(CCc3ccc(-c4ccccc4)cc3)C2=N)N1CCCCC1CCCCC1 | 69 |

Provide the reported selectivity ratio of each entry below, same order.
1. N=C1NCCN1CCc1ccc(-c2ccccc2)cc1
2. CCCCCCCN1CCN(CCCC[C@H]2CNC(=N)N2CCc2cccc(C(F)(F)F)c2)C1=N

Given back:
1. 3
2. 4
